// provenance: patent US10479780B2

tested.system: human Yes1 enzyme (Homo sapiens)
Construct: made in house
Sequence (P07947 whole entry): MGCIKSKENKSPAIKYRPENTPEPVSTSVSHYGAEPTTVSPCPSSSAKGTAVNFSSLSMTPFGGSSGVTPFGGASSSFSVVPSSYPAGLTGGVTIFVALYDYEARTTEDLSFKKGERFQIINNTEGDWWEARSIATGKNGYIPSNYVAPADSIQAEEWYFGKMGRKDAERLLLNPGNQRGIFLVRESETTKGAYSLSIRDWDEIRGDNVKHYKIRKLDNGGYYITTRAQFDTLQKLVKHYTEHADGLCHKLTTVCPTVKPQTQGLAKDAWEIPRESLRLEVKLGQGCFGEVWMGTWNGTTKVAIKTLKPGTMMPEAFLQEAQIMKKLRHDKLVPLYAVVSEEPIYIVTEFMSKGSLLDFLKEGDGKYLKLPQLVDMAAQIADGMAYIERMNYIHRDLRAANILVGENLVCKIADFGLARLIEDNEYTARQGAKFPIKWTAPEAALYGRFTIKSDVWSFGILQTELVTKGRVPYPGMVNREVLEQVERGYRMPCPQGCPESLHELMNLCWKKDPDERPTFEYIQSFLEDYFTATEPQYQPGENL
run.description: Yes1 enzyme inhibitory activity (time-resolved fluorometry, biotinylated peptide phosphorylation)
Assay type: biochemical
measurement.context: read-out: YES_IC50
readout.type: pIC50
Answer as the number alone; pIC50 is minus log10 of concentration in mol/L.

Entry `Cc1cc(-n2ncc(C(=O)c3cc4cc(OCC(F)F)c(N5CCOCC5)cc4[nH]3)c2N)ccc1Oc1ccccc1F` , tested on human Yes1 enzyme (Homo sapiens), has a reported pIC50 of 9.06

Kindly note: human Yes1 enzyme (Homo sapiens), `Cc1cc(-n2ncc(C(=O)c3cc4cc(OCC(F)F)c(N5C(=O)NC(C)(C)C5=O)cc4[nH]3)c2N)ccc1Oc1ccccc1F` , pIC50 value reported: 8.89

Result for `Cc1cc(-n2ncc(C(=O)c3cc4cc(OC5CCN(C(C)C)CC5)c(N5C(=O)NC(C)(C)C5=O)cc4[nH]3)c2N)ccc1Oc1ccccc1F` , tested on human Yes1 enzyme (Homo sapiens), pIC50: 9.46

====

tested.system: human Lck enzyme (Homo sapiens)
Construct: purchased Carna Biosciences, Inc. 08-170
Sequence (P06239 whole entry): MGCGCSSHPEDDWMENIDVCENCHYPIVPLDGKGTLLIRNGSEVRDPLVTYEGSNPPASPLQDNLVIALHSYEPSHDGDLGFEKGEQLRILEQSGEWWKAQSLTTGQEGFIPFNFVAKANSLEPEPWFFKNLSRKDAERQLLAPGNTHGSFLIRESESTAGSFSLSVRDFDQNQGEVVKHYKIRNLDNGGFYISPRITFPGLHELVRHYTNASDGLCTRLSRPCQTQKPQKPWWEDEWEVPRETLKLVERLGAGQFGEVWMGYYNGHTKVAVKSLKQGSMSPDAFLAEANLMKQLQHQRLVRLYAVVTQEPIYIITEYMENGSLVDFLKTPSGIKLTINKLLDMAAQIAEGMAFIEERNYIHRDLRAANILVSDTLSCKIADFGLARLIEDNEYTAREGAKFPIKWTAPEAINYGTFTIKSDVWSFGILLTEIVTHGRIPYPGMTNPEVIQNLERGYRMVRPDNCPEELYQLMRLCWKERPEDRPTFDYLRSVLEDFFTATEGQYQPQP
run.description: Lck enzyme inhibitory activity (time-resolved fluorometry, biotinylated peptide phosphorylation)
Assay type: biochemical
measurement.context: read-out: LCK_IC50
Experimental: 3. Lck Enzyme Inhibitory Activity Lck inhibitory activity was determined based on activity of inhibiting phosphorylation reaction of a biotinylated peptide (EGPWLEEEEEAYGWMDF) using a human Lck enzyme (manufactured by Carna Biosciences, Inc., cat 08-170). The phosphorylated biotinylated peptide was detected by time-resolved fluorometry using an anti-phosphorylated tyrosine antibody conjugated to europium cryptate, and streptavidin conjugated to XL665, an allophycocyanin derivative. […]
Please provide measured IC50 for the entries that follow.
Provide the reading as a plain figure in µM.

What the record says about Cc1cc2cc(C(=O)c3cnn(-c4cnc(Oc5c(F)cccc5F)cc4C)c3N)[nH]c2cc1N1C(=O)NC2(CCN(Cc3ccccc3)CC2)C1=O [Example 5-1-361] : IC50 is 0.026

GET /value?item= Cc1cc(Oc2c(F)cccc2F)ncc1-n1ncc(C(=O)c2cc3cc(OCC(F)F)c(NS(=O)(=O)Cc4ccccc4)cc3[nH]2)c1N [Example 5-1-296] &field=IC50 returns 0.046

# molecule CS(=O)(=O)Nc1cc2[nH]c(C(=O)c3cnn(-c4c(F)cc(Oc5ccccc5F)cc4F)c3N)cc2cc1F [Example 5-1-022] ; its IC50 = 0.01

response.value for Cc1cc(-n2ncc(C(=O)c3cc4cc(OC(F)F)c(N5CCOC5=O)cc4[nH]3)c2N)ccc1Oc1ccccc1F [Example 5-1-177] (field: IC50) = 0.082

Measured IC50 of Cc1cc(-n2ncc(C(=O)c3cc4cc(OCC(F)F)c(N)cc4[nH]3)c2N)ccc1Oc1ccccc1F [Example 5-1-162] : 0.12

# IC50 (molecule: Cc1cc(Oc2ccccc2F)ccc1-n1ncc(C(=O)c2cc3cc(OCC(F)F)c(C4CCN(C(=O)OC(C)(C)C)CC4)cc3[nH]2)c1N [Example 5-1-068] ) is 0.0084

The recorded IC50 for entry Cc1cc(Oc2c(F)cccc2F)ncc1-n1ncc(C(=O)c2cc3cc(OC4CCN(C5CS(=O)(=O)C5)CC4)c(-c4ccccc4F)cc3[nH]2)c1N [Example 5-1-311] equals 0.015

IC50 reported for this molecule Cc1cc(Oc2ccccc2F)ccc1-n1ncc(C(=O)c2cc3cc(OC4CCN(C(C)C)CC4)c(N4CCOC4=O)cc3[nH]2)c1N [Example 5-1-192] : 0.00086

What the record says about Cc1cc(Oc2c(F)cccc2F)ncc1-n1ncc(C(=O)c2cc3cc(OC4CCN(C(C)C)CC4)c(N)cc3[nH]2)c1N [Example 5-1-183] : IC50 is 0.0028

In plain terms, CC(C)N1CCC(c2cc3cc(C(=O)c4cnn(-c5ccc(Oc6cccc(F)c6)cc5F)c4N)[nH]c3cc2F)CC1 [Example 5-1-002] has a documented IC50 of 0.0022

For Cc1cc2cc(C(=O)c3cnn(-c4ccc(Oc5ncccc5Cl)cc4Cl)c3N)[nH]c2cc1N1CCCS1(=O)=O [Example 5-1-062] the molecule record lists IC50 as 0.013

In plain terms, Cc1cc2cc(C(=O)c3cnn(-c4c(C)cc(Oc5ccccc5F)cc4F)c3N)[nH]c2cc1N1CCC(N2CCOCC2)CC1 [Example 5-1-085] has a documented IC50 of 0.002

Field IC50 (entry Cc1cc(-n2ncc(C(=O)c3cc4cc(N5CCOCC5)c(N5CCC(N6CCOCC6)CC5)cc4[nH]3)c2N)ccc1Oc1ccccc1F [Example 5-1-165] ) reads 0.037

Given item CC(=O)N1CCC(c2cc3[nH]c(C(=O)c4cnn(-c5c(C)cc(Oc6ccccc6F)cc5F)c4N)cc3cc2C)CC1 [Example 5-1-138] , the value recorded as its IC50 is 0.042

IC50 recorded for this molecule, Cc1cc(Oc2ccccc2F)ccc1-n1ncc(C(=O)c2cc3cc(OC4CCN(C(C)C)CC4)c(N4CCOCC4)cc3[nH]2)c1N [Example 5-1-190] , is 0.0013

Reported IC50 ( Cc1cc(Oc2ccccc2F)ccc1-n1ncc(C(=O)c2cc3cc(OCC(F)F)c(N4C(=O)[C@@H]5C[C@@H](NC(=O)OCC6c7ccccc7-c7ccccc76)CN5C4=O)cc3[nH]2)c1N [Example 5-1-270] ) = 0.028

The molecule identified as Cc1cc(Oc2ccccc2F)ccc1-n1ncc(C(=O)c2cc3cc(OCC(F)F)c(N4C(=O)[C@@H]5C[C@H](NC(=O)OCc6ccco6)CN5C4=O)cc3[nH]2)c1N [Example 5-1-278] registered its IC50 at 0.0087

get_value(item= Cc1cc(-n2ncc(C(=O)c3cc4cc(OC5CCN(C6CS(=O)(=O)C6)CC5)c(-c5ccccc5C(F)(F)F)cc4[nH]3)c2N)ccc1Oc1ccccc1F [Example 5-1-386] , readout=IC50) returns 1

Note to self: IC50 recorded for Cc1cc(-n2ncc(C(=O)c3cc4cc(OC5CCN(C(C)C)CC5)c(Cl)cc4[nH]3)c2N)ccc1Oc1cccc(F)c1 [Example 5-1-209] was 0.098

Measured IC50, Cc1cc2cc(C(=O)c3cnn(-c4cnc(Oc5c(F)cccc5F)cc4C)c3N)[nH]c2cc1N1C(=O)NC(C)(C)C1=O [Example 5-1-286] : 0.0053

What the record says about Cc1cc(Oc2cccc(F)c2)ccc1-n1ncc(C(=O)c2cc3cc(F)c(C4CCN(C(C)C)CC4)cc3[nH]2)c1N [Example 5-1-009] : IC50 is 0.0028

Measured IC50, Cc1cc(Oc2ccccc2F)ccc1-n1ncc(C(=O)c2cc3cc(OCC(F)F)c(N4C(=O)OC[C@@H]4Cc4ccccc4)cc3[nH]2)c1N [Example 5-1-245] : 0.057

Sample Cc1cc2cc(C(=O)c3cnn(-c4cnc(Oc5ccccc5F)cc4C)c3N)[nH]c2cc1NS(=O)(=O)C1CCOCC1 [Example 5-1-333] ; IC50 observed: 0.019

The molecule listed as Cc1cc(-n2ncc(C(=O)c3cc4cc(OC5CCN(C6CCCC6)CC5)c(-c5ccccc5F)cc4[nH]3)c2N)ccc1Oc1ccccc1F [Example 5-1-308] has a reported IC50 of 0.2

====

tested.system: human Src enzyme (Homo sapiens, UniProt P12931)
Construct: purchased Carna Biosciences, Inc. 08-173
Sequence (P12931 whole entry): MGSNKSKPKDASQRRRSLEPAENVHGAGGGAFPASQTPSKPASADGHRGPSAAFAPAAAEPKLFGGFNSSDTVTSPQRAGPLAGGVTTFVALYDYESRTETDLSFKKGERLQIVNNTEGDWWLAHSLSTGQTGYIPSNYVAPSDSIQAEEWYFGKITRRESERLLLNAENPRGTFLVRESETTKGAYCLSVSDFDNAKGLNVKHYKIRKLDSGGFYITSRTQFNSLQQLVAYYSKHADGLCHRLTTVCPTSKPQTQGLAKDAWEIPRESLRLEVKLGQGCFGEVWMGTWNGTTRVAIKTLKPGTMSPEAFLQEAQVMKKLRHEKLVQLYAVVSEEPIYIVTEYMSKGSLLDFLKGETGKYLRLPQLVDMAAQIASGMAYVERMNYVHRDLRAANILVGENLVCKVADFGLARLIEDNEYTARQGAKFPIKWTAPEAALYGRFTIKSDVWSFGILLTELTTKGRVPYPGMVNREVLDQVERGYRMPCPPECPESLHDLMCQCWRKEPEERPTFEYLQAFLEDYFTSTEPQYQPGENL
run.description: Src enzyme inhibitory activity (time-resolved fluorometry, biotinylated peptide phosphorylation)
Type: biochemical
measurement.context: read-out: SRC_IC50
Mark Yes for IC50 under 30 nM, No if at or over.

Consider the compound `Cc1cc2cc(C(=O)c3cnn(-c4c(C)cc(Oc5c(F)cccc5Cl)cc4F)c3N)[nH]c2cc1NS(C)(=O)=O` . Is its IC50 strictly less than 30 nM? No

Does `Cc1cc(-n2ncc(C(=O)c3cc4cc(OC[C@H](O)CO)c(Br)cc4[nH]3)c2N)ccc1Oc1ccccc1F` have IC50 strictly under 30 nM? No

Is IC50 of Cc1cc(Oc2ccccc2F)ccc1-n1ncc(C(=O)c2cc3cc(OCC(F)F)c(N4C(=O)NC5(CCN(Cc6ccccc6)C5)C4=O)cc3[nH]2)c1N (stereo not shown) strictly below 30 nM? No

hey, is IC50 for `Cc1cc2cc(C(=O)c3cnn(-c4ccc(Oc5ccccc5F)cc4C)c3N)[nH]c2cc1NS(=O)(=O)C1CCOCC1` lower than 30 nM or not? No

Is IC50 strictly under 30 nM for the entry `Cc1cc2cc(C(=O)c3cnn(-c4cnc(Oc5c(F)cccc5F)cc4C)c3N)[nH]c2cc1N1C(=O)NC2(CCC2)C1=O` ? No

Is IC50 of `Cc1cc(Oc2c(F)cccc2F)ncc1-n1ncc(C(=O)c2cc3cc(OCC(F)F)c(N4CC(C)(C)NS4(=O)=O)cc3[nH]2)c1N` strictly below 30 nM? No

Answer whether the compound `Cc1cc(-n2ncc(C(=O)c3cc4cc(N5CCOCC5)c(N5C(=O)NC(C)(C)C5=O)cc4[nH]3)c2N)ccc1Oc1ccccc1F` has IC50 strictly less than 30 nM No

Criterion: IC50 strictly below 30 nM. Is it met by `Cc1cc(Oc2ccccc2F)ccc1-n1ncc(C(=O)c2cc3cc(OC4CCN(C(C)C)CC4)c(Cl)cc3[nH]2)c1N` ? Yes

Lab note: confirm whether the reported IC50 for this compound is below 30 nM, equality not counting. compound: `Cc1cc(Oc2c(F)cccc2F)ncc1-n1ncc(C(=O)c2cc3cc(OC4CCN(C(C)C)CC4)c(-c4cnn(C)c4)cc3[nH]2)c1N` Yes

Lab log: compare recorded IC50 with 30 nM; is it strictly lower for Cc1cc2cc(C(=O)c3cnn(-c4ccc(Oc5ccccc5F)cc4C)c3N)[nH]c2cc1N1C(=O)NC2(CCN(C3COC3)C2)C1=O (stereo not shown) ? Yes

Identify whether the compound `Cc1cc2cc(C(=O)c3cnn(-c4c(C)cc(Oc5ccccc5F)cc4F)c3N)[nH]c2cc1N1CCOCC1` records IC50 below 30 nM. No

Hi there! Is IC50 for `Cc1cc(Oc2ccccc2F)ccc1-n1ncc(C(=O)c2cc3cc(F)c(-n4c(C)cc(=O)[nH]c4=O)cc3[nH]2)c1N` below 30 nM, do you know? Yes

Given the entry `Cc1cc(Oc2c(F)cccc2F)ncc1-n1ncc(C(=O)c2cc3cc(OC4CCN(C(C)C)CC4)c(N4CCC(N5CCOCC5)CC4)cc3[nH]2)c1N` , would its reported IC50 be below 30 nM? Yes

Determine if `Cc1cc(Oc2c(F)cccc2F)ncc1-n1ncc(C(=O)c2cc3cc(F)c(N4C(=O)NC5(CCOCC5)C4=O)cc3[nH]2)c1N` shows IC50 strictly lower than 30 nM. No

Please let me know if `Cc1cc(Oc2c(F)cccc2F)ncc1-n1ncc(C(=O)c2cc3cc(C(C)C)c(NS(=O)(=O)CCCF)cc3[nH]2)c1N` shows IC50 below 30 nM. No

Take the compound `Cc1cc(Oc2c(F)cccc2F)ncc1-n1ncc(C(=O)c2cc3cc(OC4CCN(C5CS(=O)(=O)C5)CC4)c(-c4cncnc4)cc3[nH]2)c1N` and say whether its IC50 is less than 30 nM. Yes

Consider `Cc1cc(-n2ncc(C(=O)c3cc4cc(OC5CCN(C(C)C)CC5)c(-c5cccs5)cc4[nH]3)c2N)ccc1Oc1ccccc1F` . Does its IC50 lie strictly below 30 nM? No

Does `Cc1cc(Oc2ccccc2F)ccc1-n1ncc(C(=O)c2cc3cc(OC(F)F)c(Br)cc3[nH]2)c1N` have IC50 strictly under 30 nM? Yes

Identify whether the compound `Cc1cc2cc(C(=O)c3cnn(-c4cnc(Oc5ccccc5F)cc4C)c3N)[nH]c2cc1N1CCC(N2CCOCC2)CC1` records IC50 below 30 nM. Yes

Bench note: check whether `Cc1cc2cc(C(=O)c3cnn(-c4cnc(Oc5c(F)cccc5F)cc4C)c3N)[nH]c2cc1C1CCN(S(C)(=O)=O)CC1` shows IC50 below 30 nM Yes

Does the reported IC50 of the following compound sit strictly below 30 nM? `COc1ccc(Cl)c(S(=O)(=O)Nc2cc3[nH]c(C(=O)c4cnn(-c5cnc(Oc6c(F)cccc6F)cc5C)c4N)cc3cc2OCC(F)F)c1` No

State whether 30 nM exceeds IC50 recorded for `Cc1cc(Oc2c(F)cccc2F)ncc1-n1ncc(C(=O)c2cc3cc(OC4CCN(C(C)C)CC4)c(Br)cc3[nH]2)c1N` . Yes

Lab note: confirm whether the reported IC50 for this compound is below 30 nM, equality not counting. compound: `Cc1cc2cc(C(=O)c3cnn(-c4cnc(Oc5ccccc5F)cc4C)c3N)[nH]c2cc1N1C(=O)NC(C)(C)C1=O` No

Hello, is IC50 of the following compound strictly smaller than 30 nM? `Cc1cc2cc(C(=O)c3cnn(-c4ccc(Oc5ccccc5F)cc4C)c3N)[nH]c2cc1N1C(=O)NC(C)(C)C1=O` Yes

Is IC50 of `Cc1cc(Oc2c(F)cccc2F)ncc1-n1ncc(C(=O)c2cc3cc(F)c(N4CCC(N5CCOCC5)CC4)cc3[nH]2)c1N` strictly below 30 nM? Yes
